Target: recombinant human MAO-B (monoamine oxidase-B) (Homo sapiens, UniProt P27338)
Construct: purchased Sigma-Aldrich
Sequence (P27338 1-520): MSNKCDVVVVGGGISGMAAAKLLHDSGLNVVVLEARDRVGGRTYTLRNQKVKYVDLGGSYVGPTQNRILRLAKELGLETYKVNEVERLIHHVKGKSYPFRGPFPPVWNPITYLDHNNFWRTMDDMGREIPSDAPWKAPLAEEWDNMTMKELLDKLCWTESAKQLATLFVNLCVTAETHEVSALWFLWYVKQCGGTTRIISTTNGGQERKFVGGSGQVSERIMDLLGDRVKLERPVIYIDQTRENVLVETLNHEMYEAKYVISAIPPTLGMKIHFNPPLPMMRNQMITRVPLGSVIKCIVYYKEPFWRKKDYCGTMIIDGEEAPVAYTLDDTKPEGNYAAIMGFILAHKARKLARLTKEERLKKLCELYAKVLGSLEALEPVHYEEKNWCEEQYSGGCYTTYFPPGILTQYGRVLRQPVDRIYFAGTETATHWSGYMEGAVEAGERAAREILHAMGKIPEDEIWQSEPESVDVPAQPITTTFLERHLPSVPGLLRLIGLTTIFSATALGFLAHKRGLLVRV
Assay: Activity on recombinant human MAO-B, Amplex Red method, 1 mM benzylamine substrate
Type: biochemical
Conditions: 1 mM benzylamine substrate, read-out: Inhibitory Activity (IC50, nM) MAO-B
Structures can show the parent of a compound that is named as a salt.
quantity: IC50 (nM)
Give bare numbers, in nM.

Go through the items and report each one's IC50.
1. NC/C(=C\F)Cn1ncn(-c2cccc(-c3ccc(-c4noc(C5CC5)n4)cc3)n2)c1=O [Example 178, hydrochloride]
2. NC/C(=C\F)Cn1ncn(-c2cnc(-c3ccc4sc(N)nc4c3)cn2)c1=O [Example 224]
3. Cc1cc(-c2cc(C)c3c(c2)CCC(=O)N3)cnc1-n1cnn(C/C(=C/F)CN)c1=O [Example 154, hydrochloride]

output:
1: 5490; 2: 49; 3: 3000

* * *

Target: recombinant human DAO (diamine oxidase) (Homo sapiens)
Construct: purchased R&D systems
Sequence (P19801 20-751): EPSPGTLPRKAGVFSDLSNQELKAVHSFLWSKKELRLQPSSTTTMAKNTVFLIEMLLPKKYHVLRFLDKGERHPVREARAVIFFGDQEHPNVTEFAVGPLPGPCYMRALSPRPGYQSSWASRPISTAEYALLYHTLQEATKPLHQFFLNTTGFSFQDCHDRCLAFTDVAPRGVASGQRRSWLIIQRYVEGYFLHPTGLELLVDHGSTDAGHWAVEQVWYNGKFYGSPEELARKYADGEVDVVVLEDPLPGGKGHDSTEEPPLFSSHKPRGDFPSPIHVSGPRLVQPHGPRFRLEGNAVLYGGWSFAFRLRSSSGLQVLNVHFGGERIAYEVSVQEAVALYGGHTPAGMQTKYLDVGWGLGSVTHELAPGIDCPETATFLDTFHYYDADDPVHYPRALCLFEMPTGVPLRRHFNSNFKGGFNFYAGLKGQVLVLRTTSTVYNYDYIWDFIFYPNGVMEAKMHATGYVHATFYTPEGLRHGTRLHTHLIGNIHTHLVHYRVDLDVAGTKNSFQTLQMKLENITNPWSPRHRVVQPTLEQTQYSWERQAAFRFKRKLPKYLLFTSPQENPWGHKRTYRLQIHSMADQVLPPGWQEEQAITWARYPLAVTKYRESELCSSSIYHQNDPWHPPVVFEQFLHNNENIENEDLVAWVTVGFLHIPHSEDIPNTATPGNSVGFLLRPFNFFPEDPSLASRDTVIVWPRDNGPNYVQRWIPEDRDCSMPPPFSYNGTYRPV
Assay: Activity on recombinant human DAO, Amplex Red method, 1 mM putrescine substrate
Format: biochemical
Conditions: recombinant human DAO, 1 mM putrescine; * = between 10 and 100 nM, ** = between 300 and 1000 nM; read-out: Inhibitory Activity (IC50, nM) DAO
Where a name gives a salt, the structure may show the parent alone.
quantity: IC50 (nM)
Numbers only, in nM.

As a guide, the following entries are already answered.
compound | subject-of-test | IC50 (nM)
Cc1cc(-c2ccc(C(=O)N3CCOCC3)cc2)cnc1-n1cnn(C/C(=C/F)CN)c1=O [Example 146, hydrochloride] | recombinant human DAO (diamine oxidase) (Homo sapiens) | 17000
COc1cc(-c2cccc(-n3cnn(C/C(=C/F)CN)c3=O)c2)ccn1 [Example 79, hydrochloride] | recombinant human DAO (diamine oxidase) (Homo sapiens) | 2.2
NC/C(=C\F)Cn1ncn(-c2ccc(Br)cc2F)c1=O [Example 12, hydrochloride] | recombinant human DAO (diamine oxidase) (Homo sapiens) | 38
CN(C)S(=O)(=O)c1ccc(-c2cccc(-n3cnn(C/C(=C/F)CN)c3=O)c2)cc1 [Example 55, hydrochloride] | recombinant human DAO (diamine oxidase) (Homo sapiens) | 1
NC/C(=C\F)Cn1ncn(-c2cccc(Br)c2)c1=O [Example 4, hydrochloride] | recombinant human DAO (diamine oxidase) (Homo sapiens) | 90

Go through the items and report each one's IC50.
1. NC/C(=C/F)Cn1ncn(-c2ccc(Br)c(F)c2)c1=O
2. NC/C(=C\F)Cn1ncn(-c2cccc(-c3ccc(C(=O)N4CCOCC4)cc3)c2)c1=O [Example 78, hydrochloride]
3. NC/C(=C\F)Cn1ncn(-c2cc(F)c(Br)cc2F)c1=O [Example 23, hydrochloride]
4. NC/C(=C/F)Cn1ncn(-c2ccc(Br)cc2F)c1=O [Example 11, hydrochloride]
5. NC/C(=C/F)Cn1ncn(-c2ccc(Br)nc2)c1=O
6. NC/C(=C/F)Cn1ncn(-c2nccs2)c1=O [Example 39, hydrochloride]
7. Cc1cc(-c2ccc(-c3noc(C(C)C)n3)cc2)cnc1-n1cnn(C/C(=C/F)CN)c1=O [Example 142, hydrochloride]
8. Cc1cc(-c2ccc(-c3nnc[nH]3)cc2)cnc1-n1cnn(C/C(=C/F)CN)c1=O

output:
[67, 0.2, 32, 209, 26, 30, 57, 6100]

Go through the items and report each one's IC50.
1. NC/C(=C\F)Cn1ncn(-c2ccc(Br)nc2)c1=O [Example 25, hydrochloride]
2. NC/C(=C/F)Cn1ncn(-c2cc(F)c(Br)c(F)c2)c1=O
3. CC(=O)Nc1cc(-c2cccc(-n3cnn(C/C(=C\F)CN)c3=O)c2)ccn1 [Example 80, hydrochloride]
4. CC(=O)Nc1ccc(-c2cnc(-n3cnn(C/C(=C/F)CN)c3=O)c(C)c2)cc1 [Example 134, hydrochloride]
5. NC/C(=C\F)Cn1ncn(-c2ccc(F)c(F)c2)c1=O [Example 10, hydrochloride]
6. Cc1ccc(-c2cccc(-n3cnn(C/C(=C/F)CN)c3=O)c2)c2cccnc12 [Example 105, hydrochloride]
7. COc1cc(-n2cnn(C/C(=C/F)CN)c2=O)ccc1Br [Example 18, hydrochloride]

output:
1: 25; 2: 13; 3: 12; 4: 1200; 5: 100; 6: 180; 7: 21

IC50 recorded for this compound, NC/C(=C\F)Cn1ncn(-c2ccc(Br)cn2)c1=O [Example 30, hydrochloride] , is 13
